pKi: −log10 of the molar value.
Below are pKi values for Melanin-concentrating hormone receptor 1 (Rattus norvegicus, UniProt P97639) collected from several publications.
Property Label: pKi

# Molecule, pKi
data = [
    ("CCS(=O)(=O)C[C@@H](O)COc1ccc(-n2cnn3cc(-c4ccc(Cl)cn4)cc3c2=O)cc1OC", 8.06),
    ("CC(C)C(=O)Nc1cccc(C2CCN(CCCCCNC(=O)C(c3ccccc3)c3ccccc3)CC2)c1", 7.33),
    ("COc1cc(-n2cnn3cc(-c4ncc(Cl)cn4)cc3c2=O)ccc1OCC1(O)CC(F)(F)C1", 8.10),
    ("Cc1ccc(NC(=O)C(C)C)cc1C1CCN(CCCNC(=O)[C@H](C)c2ccc(F)cc2)CC1", 7.55),
    ("CN1CC(c2cn(C)c3cc(-n4ccc(OCc5ccccc5)cc4=O)ccc23)C1", 7.96),
    ("CN1CC(c2c[nH]c3cc(-n4ccc(OCc5ccccc5F)cc4=O)ccc23)C1", 8.17),
]

[A] Cc1ccc(C2CCN(CCCNC(=O)C(c3ccccc3)c3ccccc3)CC2)cc1NC(=O)C(C)C
[B] CC(C)C(=O)Nc1cccc(C2CCN(CCCCCCNC(=O)C(c3ccccc3)c3ccccc3)CC2)c1
Problem: Which record shows the lower pKi: the first, A , or the second, B ? Choose, then provide that item's label.
Solution: A
(A: 6.30, B: 7.54)
